tested-system: EGFR L858R/T790M/C797S (Homo sapiens, UniProt P00533, C797S/L858R/T790M)
Sequence (P00533 25-1210 T790M/C797S/L858R): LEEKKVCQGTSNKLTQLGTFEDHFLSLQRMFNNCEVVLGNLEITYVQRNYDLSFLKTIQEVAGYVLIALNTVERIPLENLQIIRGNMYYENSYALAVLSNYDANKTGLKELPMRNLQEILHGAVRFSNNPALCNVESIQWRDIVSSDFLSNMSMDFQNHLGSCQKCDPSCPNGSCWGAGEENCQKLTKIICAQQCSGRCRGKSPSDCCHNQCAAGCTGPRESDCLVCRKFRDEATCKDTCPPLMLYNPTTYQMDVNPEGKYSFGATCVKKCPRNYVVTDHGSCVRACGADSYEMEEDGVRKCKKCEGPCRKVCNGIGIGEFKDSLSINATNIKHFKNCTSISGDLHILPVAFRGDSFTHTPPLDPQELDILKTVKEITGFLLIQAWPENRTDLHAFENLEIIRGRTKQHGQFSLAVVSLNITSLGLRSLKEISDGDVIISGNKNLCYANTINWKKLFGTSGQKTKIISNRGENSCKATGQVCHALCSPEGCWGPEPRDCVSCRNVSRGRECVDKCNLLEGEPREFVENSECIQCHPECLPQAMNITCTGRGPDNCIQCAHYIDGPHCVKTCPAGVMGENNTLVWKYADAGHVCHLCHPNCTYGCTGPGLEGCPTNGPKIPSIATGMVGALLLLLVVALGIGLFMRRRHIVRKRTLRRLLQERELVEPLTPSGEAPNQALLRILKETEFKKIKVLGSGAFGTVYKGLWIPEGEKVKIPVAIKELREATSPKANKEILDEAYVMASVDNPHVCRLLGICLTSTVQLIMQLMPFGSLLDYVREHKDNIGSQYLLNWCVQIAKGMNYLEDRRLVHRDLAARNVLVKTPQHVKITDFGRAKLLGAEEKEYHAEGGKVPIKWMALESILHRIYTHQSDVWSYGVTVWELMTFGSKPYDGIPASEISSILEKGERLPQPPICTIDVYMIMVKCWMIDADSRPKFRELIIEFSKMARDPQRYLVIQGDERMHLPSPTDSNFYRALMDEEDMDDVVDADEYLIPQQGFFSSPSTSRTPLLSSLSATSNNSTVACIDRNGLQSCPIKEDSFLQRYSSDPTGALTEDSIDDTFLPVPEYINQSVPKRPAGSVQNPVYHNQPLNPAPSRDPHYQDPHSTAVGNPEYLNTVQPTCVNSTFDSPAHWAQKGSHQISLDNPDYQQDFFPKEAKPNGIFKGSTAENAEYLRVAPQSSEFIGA
procedure-details: Biochemical EGFR kinase assay (Lance Ultra TR-FRET), L858R/T790M/C797S
cond: Km ATP; read-out: IC50 L858R/T790M/C797S (nM) Km ATP
Listing of entries alongside the reported IC50.
metric-name: IC50 (nM)

INSERT INTO results (compound, metric_name, endpoint_result) VALUES
  ('C[C@]1(O)CC[C@@H](Nc2cc(Nc3ccnc(-c4cnn(S(=O)(=O)C5CC5)c4)n3)ncc2C(=O)C2CC2)CC1 [Example 33]', 'IC50', 0.3),
  ('CN(C)C[C@H]1CC[C@H](COc2cc(Nc3ccnc(-c4cnn(S(=O)(=O)C5CC5)c4)n3)ncc2C(=O)C2CC2)CC1 [Example 66]', 'IC50', 0.4),
  ('CC(NCC1CCC(CNc2cc(Nc3ccnc(-c4cnn(S(=O)(=O)C5CC5)c4)n3)ncc2C(=O)C2CC2)CC1)C(F)F (stereo not drawn) [Example 73]', 'IC50', 3.1);

###

tested-system: EGFR del19/C797S (Homo sapiens, UniProt P00533, C797S/DEL746-750)
Sequence (P00533 with tags, fused parts or gaps DEL746-750/C797S): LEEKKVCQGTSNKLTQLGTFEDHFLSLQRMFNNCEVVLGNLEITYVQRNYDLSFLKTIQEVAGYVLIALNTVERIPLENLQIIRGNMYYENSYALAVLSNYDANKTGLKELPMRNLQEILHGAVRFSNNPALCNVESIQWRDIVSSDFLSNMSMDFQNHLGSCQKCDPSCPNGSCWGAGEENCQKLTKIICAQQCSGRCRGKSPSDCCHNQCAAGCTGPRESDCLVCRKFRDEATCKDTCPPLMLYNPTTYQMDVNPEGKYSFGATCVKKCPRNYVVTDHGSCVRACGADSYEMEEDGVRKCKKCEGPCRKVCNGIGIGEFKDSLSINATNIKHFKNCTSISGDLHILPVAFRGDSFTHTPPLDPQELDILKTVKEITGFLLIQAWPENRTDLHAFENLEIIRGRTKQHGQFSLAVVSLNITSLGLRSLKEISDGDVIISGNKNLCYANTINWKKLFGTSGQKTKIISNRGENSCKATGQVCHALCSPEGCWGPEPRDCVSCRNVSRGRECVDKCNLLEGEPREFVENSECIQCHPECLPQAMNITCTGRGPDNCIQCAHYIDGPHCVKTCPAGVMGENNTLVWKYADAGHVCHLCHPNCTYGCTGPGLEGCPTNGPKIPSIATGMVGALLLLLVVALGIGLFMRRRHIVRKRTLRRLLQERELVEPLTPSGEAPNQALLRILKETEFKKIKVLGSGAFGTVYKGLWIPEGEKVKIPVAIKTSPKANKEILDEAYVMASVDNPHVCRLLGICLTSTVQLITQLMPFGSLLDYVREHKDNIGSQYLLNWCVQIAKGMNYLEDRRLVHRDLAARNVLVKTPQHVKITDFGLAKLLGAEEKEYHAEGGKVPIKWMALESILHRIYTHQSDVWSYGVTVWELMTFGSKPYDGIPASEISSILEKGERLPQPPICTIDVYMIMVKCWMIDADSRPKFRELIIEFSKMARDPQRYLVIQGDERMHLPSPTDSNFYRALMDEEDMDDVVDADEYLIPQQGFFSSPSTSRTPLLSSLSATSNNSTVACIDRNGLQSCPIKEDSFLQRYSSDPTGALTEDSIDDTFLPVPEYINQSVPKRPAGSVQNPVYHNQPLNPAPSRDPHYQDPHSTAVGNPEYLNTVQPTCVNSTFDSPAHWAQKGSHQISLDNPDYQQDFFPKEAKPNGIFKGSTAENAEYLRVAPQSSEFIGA
procedure-details: Biochemical EGFR kinase assay (Lance Ultra TR-FRET), del19/C797S
cond: Km ATP; read-out: IC50 del19/C797S (nM) Km ATP
metric-name: IC50 (nM)

INSERT INTO measurements (test_smiles, endpoint_result) VALUES
  ('CN(C)C1CCN(CCNc2cc(Nc3ccnc(-c4cnn(S(=O)(=O)C5CC5)c4)n3)ncc2C(=O)C2CC2)CC1', 72.3),
  ('CC(C)NC[C@H]1CC[C@H](CNc2cc(Nc3ccnc(-c4cnn(S(=O)(=O)C5CC5)c4)n3)ncc2C(=O)C2CC2)CC1', 0.8),
  ('CC(=O)c1cnc(Nc2ccnc(-c3cnn(S(=O)(=O)C4CC4)c3)n2)cc1OC[C@H]1CC[C@H](CN(C)C)CC1', 52.5),
  ('O=C(c1cnc(Nc2ccnc(-c3cnn(S(=O)(=O)C4CC4)c3)n2)cc1NC1CC1)C1CC1', 536);

###

Listing of entries alongside the reported log10 of IC50.
tested-system: EGFR del19/C797S (Homo sapiens, UniProt P00533, C797S/DEL746-750)
procedure-details: Biochemical EGFR kinase assay (Lance Ultra TR-FRET), del19/C797S
cond: IC50 del19/C797S (nM) 100 μM ATP, 100 μM ATP
metric-name: log10 of IC50 (log10 of the value in nM)

INSERT INTO measurements (compound, metric_name, endpoint_result) VALUES
  ('O=C(c1cnc(Nc2ccnc(-c3cnn(S(=O)(=O)C4CC4)c3)n2)cc1N[C@H]1CCC[C@H](O)C1)C1CC1', 'log10 of IC50', 1.15),
  ('O=C(c1cnc(Nc2ccnc(-c3cnn(S(=O)(=O)C4CC4)c3)n2)cc1N[C@@H]1CC[C@@H](O)C1)C1CC1', 'log10 of IC50', 1.74),
  ('O=C(c1cnc(Nc2ccnc(-c3cnn(S(=O)(=O)C4CC4)c3)n2)cc1N[C@H]1CC[C@](O)(CO)CC1)C1CC1', 'log10 of IC50', 0.46),
  ('CN[C@H]1CC[C@@H](Nc2cc(Nc3ccnc(-c4cnn(S(=O)(=O)C5CC5)c4)n3)ncc2C(=O)C2CC2)CC1', 'log10 of IC50', 1.71),
  ('O=C(NCCF)c1cnc(Nc2ccnc(-c3cnn(S(=O)(=O)C4CC4)c3)n2)cc1N[C@H]1CC[C@@H](NCCF)CC1', 'log10 of IC50', 1.29),
  ('O=C(c1cnc(Nc2ccnc(-c3cnn(S(=O)(=O)C4CC4)c3)n2)cc1NC1CCC(NCCN2CC(F)C2)CC1)C1CC1 (stereo not drawn)', 'log10 of IC50', 1.55),
  ('CNC[C@H]1CC[C@H](CNc2cc(Nc3ccnc(-c4cnn(S(=O)(=O)C5CC5)c4)n3)ncc2C(=O)C2CC2)CC1', 'log10 of IC50', -0.10),
  ('C[C@]1(O)CC[C@@H](Nc2cc(Nc3ccnc(-c4cnn(S(=O)(=O)C5CC5)c4)n3)ncc2C(=O)C2CC2)CC1', 'log10 of IC50', 0.23),
  ('CN(C)CCNC1CCC(Nc2cc(Nc3ccnc(-c4cnn(S(=O)(=O)C5CC5)c4)n3)ncc2C(=O)C2CC2)CC1 (stereo not drawn)', 'log10 of IC50', 0.26),
  ('O=C(c1cnc(Nc2ccnc(-c3cnn(S(=O)(=O)C4CC4)c3)n2)cc1NC1CC[C@@H](O)[C@@H](O)C1)C1CC1 (stereo partly drawn)', 'log10 of IC50', 0.73),
  ('O=C(c1cnc(Nc2ccnc(-c3cnn(S(=O)(=O)C4CC4)c3)n2)cc1NC1CCC(NCCN2CCCCC2)CC1)C1CC1 (stereo not drawn)', 'log10 of IC50', 0.88),
  ('C[C@]1(O)CC[C@@H](Nc2cc(Nc3ccnc(-c4cnn(S(=O)(=O)C5CC5)c4)n3)ncc2C(=O)C(F)F)CC1', 'log10 of IC50', 0.64),
  ('O=C(c1cnc(Nc2ccnc(-c3cnn(S(=O)(=O)C4CC4)c3)n2)cc1NC1CCCN(CCF)C1)C1CC1 (stereo not drawn)', 'log10 of IC50', 1.59),
  ('O=C(c1cnc(Nc2ccnc(-c3cnn(S(=O)(=O)C4CC4)c3)n2)cc1N[C@H]1CC[C@H](O)C1)C1CC1', 'log10 of IC50', 1.85),
  ('O=C(c1cnc(Nc2ccnc(-c3cnn(S(=O)(=O)C4CC4)c3)n2)cc1N[C@H]1CC[C@@H](O)C1)C1CC1', 'log10 of IC50', 1.07);
